SODIUM by entry:
Species on record: Rattus norvegicus
Experiment: DrugMatrix - Regimen: Daily Repeat
Format: toxicity, organism-based, Sprague-Dawley
Set-up: regimen Daily Repeat, gender Male, age 6-8 weeks
Conditions: in vivo, iv, 0 mg/kg, 72 h, tissue Plasma, dose level Control, time 3 day, vehicle 100 % SALINE
quantity-measured: SODIUM (MEQ/L)

1) O=C(O)P(=O)(O)O	144.42
2) O=c1[nH]c(=O)n([C@H]2C[C@H](O)[C@@H](CO)O2)cc1F	142.1
3) COc1cccc2c1C(=O)c1c(O)c3c(c(O)c1C2=O)C[C@@](O)(C(C)=O)C[C@@H]3O[C@H]1C[C@H](N)[C@H](O)[C@H](C)O1	144
4) N=C(N)c1ccc(OCCCCCOc2ccc(C(=N)N)cc2)cc1	143.28
5) C[N+](C)(C)CCOC(=O)CCC(=O)OCC[N+](C)(C)C.[Cl-].[Cl-] [SUCCINYLCHOLINE CHLORIDE]	143.28

* * *

Species on record: Rattus norvegicus
Test: DrugMatrix - Regimen: Daily Repeat
Format: toxicity, organism-based, Sprague-Dawley
Set-up: regimen Daily Repeat, gender Male, age 6-8 weeks
Details: in vivo, po, 0 mg/kg, 120 h, tissue Plasma, route oral GAVAGE, dose level Control, time 5 day, vehicle .5 % CMC
quantity-measured: BLOOD UREA NITROGEN (mg/dL)

1) COc1ccccc1[N+](=O)[O-]	15.33
2) CN(C)CCN(Cc1cccs1)c1ccccn1	15.75
3) C[C@@](Cc1ccc(O)c(O)c1)(NN)C(=O)O.O	20
4) C[C@]12CC[C@@H]3c4ccc(O)cc4CC[C@H]3[C@@H]1C[C@@H](O)[C@@H]2O	18
5) COc1cc(OC)c(C(=O)CCCN2CCCC2)c(OC)c1	15.5
6) CCCNC(=O)NS(=O)(=O)c1ccc(Cl)cc1 [CHLORPROPAMIDE]	16
7) C[C@@H]1O[C@@H](O[C@H]2C[C@@H](O)[C@]3(CO)[C@H]4[C@H](O)C[C@]5(C)[C@@H](C6=CC(=O)OC6)CC[C@]5(O)[C@@H]4CC[C@]3(O)C2)[C@H](O)[C@H](O)[C@H]1O	17.83
8) CCC1=C(C)CN(C(=O)NCCc2ccc(S(=O)(=O)NC(=O)N[C@H]3CC[C@H](C)CC3)cc2)C1=O [GLIMEPIRIDE]	17
9) CCCCC1=NC2(CCCC2)C(=O)N1Cc1ccc(-c2ccccc2-c2nnn[nH]2)cc1	17
10) NC(=O)N1c2ccccc2CC(=O)c2ccccc21 [OXCARBAZEPINE]	16.67
11) COc1ccc2c(c1OC)C(=O)O[C@@H]2[C@H]1c2c(cc3c(c2OC)OCO3)CCN1C	14.17
12) CCOc1nc2cccc(C(=O)O)c2n1Cc1ccc(-c2ccccc2-c2nnn[nH]2)cc1	20.67
13) C#C[C@]1(O)CC[C@H]2[C@@H]3CCC4=CC(=O)CC[C@]4(C)[C@H]3CC[C@@]21C	14.17
14) CN(C)C(=O)C(CCN1CCC(O)(c2ccc(Cl)cc2)CC1)(c1ccccc1)c1ccccc1 [LOPERAMIDE]	17

* * *

Species: Rattus norvegicus
Assay: DrugMatrix - Regimen: Daily Repeat
Type: toxicity, organism-based, Sprague-Dawley
Parameters: regimen Daily Repeat, gender Male, age 6-8 weeks
Settings: in vivo, po, 0 mg/kg, 120 h, tissue Blood, route oral GAVAGE, dose level Control, time 5 day, vehicle 100 % WATER
MEAN CORPUSCULAR HEMOGLOBIN by entry:
quantity-measured: MEAN CORPUSCULAR HEMOGLOBIN (pg)

1. CCN(CC)CCOC(=O)C1(C2CCCCC2)CCCCC1	23.92
2. CN(C)CCC=C1c2ccccc2CCc2ccccc21	24.85
3. C#Cc1cccc(Nc2ncnc3cc(OCCOC)c(OCCOC)cc23)c1	20.55
4. CCN(CC)CCNC(=O)c1ccc(N)cc1 [PROCAINAMIDE]	24.7
5. CCN(C(C)=O)c1cccc(-c2ccnc3c(C#N)cnn23)c1	24.85
